Each entry below carries its recorded Ki.
assay-system: PK receptors (Rattus norvegicus, UniProt P16257)
Quick reminder: number only, in nM, skip the unit.

Known results for compounds:
INSERT INTO results (compound, unit_abbrev, result_value) VALUES
  ('CN(CCCF)C(=O)c1cc2ccccc2c(-c2cccc(I)c2)n1 [H I H CH2 CH2 CH2 F]', 'nM', 1.3),
  ('CN(CCCF)C(=O)c1cc2ccccc2c(-c2ccccc2I)n1 [H H CH2 CH2 CH2 F]', 'nM', 0.26),
  ('CN(CCCF)C(=O)c1cc2ccccc2c(-c2ccc(I)cc2)n1 [H H I CH2 CH2 CH2 F]', 'nM', 63.1);

Please look at the following compound next.
Can you look up Ki on PK receptors (Rattus norvegicus, UniProt P16257) for CN(CCF)C(=O)c1cc2ccccc2c(-c2ccccc2I)n1 [I H H CH2 CH2 F] ? 421

This collection of values is drawn from patent US5998624A.
